Tested on: HT-29
Assay: Growth inhibition of human HT-29 cells incubated for 48 hrs by sulforhodamine B assay
Type: functional, cell-based
Conditions: HT-29, 48 h, read-out: pGI50 (converted)
// classify: if (GI50 < 3000 nM) yes else no

Ask | Please let me know if O=C(Nc1cccc(-n2cc(-c3ccncc3)c(-c3cc(O)cc(Cl)c3)n2)c1)c1cc(C(F)(F)F)cc(C(F)(F)F)c1 shows GI50 below 3000 nM.
Reply | yes

Ask | Moving on to COc1cc(Cl)cc(-c2nn(-c3cccc(NC(=O)c4ccc(N5CCOCC5)c(C(F)(F)F)c4)c3)cc2-c2ccncc2)c1
Reply | no

Ask | Now this one: COc1cc(Cl)cc(-c2nn(-c3cccc(NC(=O)c4cccc(C(F)(F)F)c4)c3)cc2-c2ccncc2)c1
Reply | no

Ask | Follow-up item: COc1cc(Cl)cc(-c2nn(-c3cccc(NC(=O)Nc4ccc(Cl)c(Cl)c4)c3)cc2-c2ccncc2)c1
Reply | yes

Ask | Ok, now COc1cc(Cl)cc(-c2nn(-c3cccc(NC(=O)Nc4cc(C(F)(F)F)cc(C(F)(F)F)c4)c3)cc2-c2ccncc2)c1
Reply | yes

Ask | Try COc1cc(Cl)cc(-c2nn(-c3cccc(NC(=O)Nc4ccc(Cl)c(C(F)(F)F)c4)c3)cc2-c2ccncc2)c1 next.
Reply | yes

Data provenance is ChEMBL document CHEMBL4308841.
